So I've got a bunch of compounds here, and I need their fold change (FC) values.
Tested on: KBVIN
method-description: Inhibition of Pgp-mediated multidrug resistance in human KBVIN cells assessed as chemosensitization activity measured by increase in vincristine-induced cytotoxicity at 1 ug/mL by SRB assay relative to untreated control
Format: cell-based
Answers are plain numbers.

A selection of reference data follows.
compound-smiles: CCc1cc(=O)c2ccc3c(c2o1)[C@@H](OC(=O)c1ccccc1OC)[C@@H](OC(=O)c1ccccc1OC)C(C)(C)O3
value: 28.1

compound-smiles: CCc1cc(=O)c2ccc3c(c2o1)[C@@H](OC(=O)c1cccc(OC)c1)[C@@H](OC(=O)c1cccc(OC)c1)C(C)(C)O3
value: 27.1

Note: attention shifts to another entry.
Which fold change (FC) reading was recorded for the compound CCc1cc(=O)c2ccc3c(c2o1)[C@@H](OC(=O)c1ccc(C)cc1)[C@@H](OC(=O)c1ccc(C)cc1)C(C)(C)O3 ?
349

These measurements were taken from ChEMBL document CHEMBL1629447.
